Reference for the values: patent US20200087364A1

Would you kindly list peptide exchange yield for each of these binders?
- Tested on: T1, HLA-A*01:01 (human)
- T1 construct: MHC class I monomer first loaded with a UV-sensitive peptide (not identified) that is cleaved by UV irradiation and exchanged for the tested peptide; captured on streptavidin plates, detected with anti-β2m; also called peptide-receptive MHC molecules
- Assay notes: UV-ligand exchange, anti-b2m ELISA

Which peptide exchange yield is listed for `ASCRSSAEY` ?
> 75%

Please do the same for `SITDVDFIY` as well.
20 to 50%

Another binder to look at: `TTDDTTAMASAS`
20 to 50%

Same thing, different binder: `KSWSQSSSLMY`
50 to 75%

Also `QITSFASGTSY` , if possible.
50 to 75%

Query `QLDSTLDSY` next
50 to 75%

Note, next up: `AADSNPSEL`
20 to 50%

Another binder: `PIMSSSQALY`
20 to 50%

What do you get for `TTEMVSNESVDY` ?
> 75%

Can you handle `RTHIGYKVY` next?
50 to 75%

Would you kindly repeat that for `RPSSVLTIY` ?
50 to 75%

Next binder: `ESAATGQLDY`
50 to 75%

// next record `TSDQLGYSY`
50 to 75%

Continue with `TTSSAISWILY`
50 to 75%
